FYI, the data here is from PubChem BioAssay (NCI).

The reader will find GI50 measurements below, all made with OVCAR-8 ovarian.

Here is how some molecules turned out for GI50.
molecule=O=C(Nc1cccc(Cl)c1)Nc1cccc(Cl)c1 measured_on="OVCAR-8 ovarian" assay_metric=GI50 observed_measurement="15.3 µM"
molecule="CN(C)CC(C(=O)c1ccccc1)c1ccccc1 (stereo not drawn)" measured_on="OVCAR-8 ovarian" assay_metric=GI50 observed_measurement="1.99 µM"
molecule=Cc1ccc(-n2c3c(c4c(CN5CCCCC5)c(O)ccc42)CCc2ccccc2C3=O)cc1 measured_on="OVCAR-8 ovarian" assay_metric=GI50 observed_measurement="46 µM"
molecule=COc1ccc(Nc2c3ccccc3nc3c2c2ccccc2n3C)cc1 measured_on="OVCAR-8 ovarian" assay_metric=GI50 observed_measurement="57.5 µM"
molecule=CCCCCCN(CCCCCC)CCCNc1nccc2ccccc12 measured_on="OVCAR-8 ovarian" assay_metric=GI50 observed_measurement="1.67 µM"

Request: GI50 lookup needed for "COc1ccc(CN2c3ccccc3Sc3ccccc32)cc1F" , thanks.
Result: 0.712 µM

Request: Now try "CCN(CC)CCN1C(=O)c2cccc3c(-c4ccc5c(c4)ncn5C4CCCCC4)ccc(c23)C1=O" .
Result: 1.75 µM

Request: Now try "CCCc1cc(=O)oc2c(C(=O)CC(C)C)c(O)c(CC=C(C)C)c(O)c12" .
Result: 12 µM

* * *

Tested on: M14 melanoma
Permitted responses: active, inactive

Reference set, count: 5
molecule=O=S(=O)(NCCNc1nccc(-c2c(-c3cccc(O)c3)nc3sccn23)n1)c1ccc(F)cc1 measured_on="M14 melanoma" assigned_label=inactive
molecule=O=C(N[C@H](c1ccc(Cl)c(Cl)c1)C1CNC1)c1ccc2cnccc2c1 measured_on="M14 melanoma" assigned_label=inactive
molecule="O=C1NC(=NCC(CO)c2ccccc2)S/C1=C\\c1ccc2ncccc2c1 (stereo unspecified)" measured_on="M14 melanoma" assigned_label=inactive
molecule=c1cncc(CNc2ccccc2-c2nnc(Nc3ccc4c(c3)OCO4)o2)c1 measured_on="M14 melanoma" assigned_label=active
molecule=C=C1CC[C@@H]2C(C)(C)[C@@H](O)CC[C@@]2(C)[C@@H]1COc1ccc2ccc(=O)oc2c1 measured_on="M14 melanoma" assigned_label=inactive

Request: Fill in: this test's call for CN(C)CC(C(=O)c1ccccc1)c1ccccc1 (stereo unspecified) is ___
Result: inactive

* * *

Catalogue of TGI values
Test system: SW-620 colon
Assay: NCI tumour cell line growth inhibition, 48 h

Here is how some compounds turned out for TGI.
compound="COc1ccc(C2CCc3nc4nc(N)nc(N)c4cc3C2)cc1 (stereo not drawn)" assay_metric=TGI observed_measurement="> 100 µM"
compound="O=C(O)CC(NC(=O)C(F)(F)F)C(=O)NC1Cc2ccccc2OC1=O (stereo not drawn)" assay_metric=TGI observed_measurement="> 100 µM"

Please examine the following record next.
Request: TGI lookup needed for CSC1=Nc2c(c(C)c(-c3ccccc3)n2COC(CO)CO)C2=NC(=O)C(C)N12 (stereo not drawn) , thanks.
Result: > 100 µM

* * *

Test system: ACHN renal
Test: NCI tumour cell line growth inhibition, 48 h
ASSAY METRIC: TGI

compound=CSc1ccc2c(c1)c(CCN)c(C)n2Cc1ccc(Cl)c(Cl)c1 observed_measurement="3.08 µM"
compound=Nc1[nH]c(=O)nc2sc3c(c12)CCCC3 observed_measurement="> 100 µM"
compound=C=C1c2nc3ccccc3n2C=C(c2ccc(Cl)cc2)N1c1ccc(OCCN2CCOCC2)cc1 observed_measurement="> 100 µM"
compound="CCCCC1Cc2cc(O)ccc2-c2n1c1cc(O)ccc1[n+]2C (stereo unspecified) (tested in a mixture with another compound)" observed_measurement="98.7 µM"
compound=CCOc1ccc(Cc2nccc3cc(OCC)c(OCC)cc23)cc1OCC observed_measurement="45.1 µM"

Request: TGI lookup needed for "C=C1CC[C@@H]2C(C)(C)[C@@H](O)CC[C@@]2(C)[C@@H]1COc1ccc2ccc(=O)oc2c1" , thanks.
Result: 29.2 µM

Request: Now try "COC(=O)/C(C#N)=C\N1CCN(C(=O)c2ccco2)C1=S" .
Result: 23.3 µM
